System: Plasmodium falciparum
Experiment: GSK_TCMDC: Inhibition of Plasmodium falciparum 3D7 in whole erythrocytes, using parasite LDH activity as an index of growth.
Type: functional, organism-based
Conditions: Plasmodium falciparum, 3D7
value-type: XC50 (µM)
Answer format: numeric, µM implied, no suffix.

XC50 in this record for NC(=O)C1CCN(Cc2ccc(-c3ccc(-c4nc5cc(C(F)(F)F)ccc5[nH]4)cc3)cc2)CC1 : 0.68

Given item CN1CCCN(Cc2cccc(-c3ccc(NC(=O)c4ccc(Cl)cc4)cc3)c2)CC1 , the value recorded as its XC50 is 0.72

GET /value?item= Fc1ccc2[nH]c(-c3ccccc3)nc2c1CN1CCC(N2CCCC2)CC1 &field=XC50 returns 0.717

Per the record, CN1CC=C(c2c[nH]c3ccc(OCc4ccccc4)cc23)CC1 has XC50 of 0.718
